# Tested on: Wolbachia pipientis
# Experimental protocol: Anti-Wolbachia Cell-Based Screen
# Assay type: functional
# Design: scale not given: in the data most compounds retested in dose-response had high values
# Measurement context: 5 µM
The whole screen tested about 48,000 compounds, of which about 13,000 (27%) showed an effect of 50% or more. The list shows a part of the results.
molecules and their reported Percent Effect
Write the number in % without appending the unit.

INSERT INTO results (molecule, number) VALUES
  ('COc1ccc(-c2cn3c(n2)CO[C@@H](CNCc2ccccn2)C3)cc1', -5.771),
  ('COc1cc(OC)cc(-c2noc(CN)n2)c1', -5.186),
  ('COCc1nc(C(=O)N2CCCC(n3ccnc3C(C)C)C2)cs1 (centres undefined)', 114),
  ('COc1ccc(-c2noc(C3CC(C(C)C)=NO3)n2)cc1 (centres undefined)', -24.09),
  ('Cc1noc(COCC(=O)Nc2cc(C)c(Br)cn2)n1', -3.051);

The molecule identified as CCN(CC1CCCO1)C(=O)Nc1cc(C(N)=O)ccc1OC (centres undefined) registered its Percent Effect at 103.2

The molecule identified as CC(C)c1nccn1C1CCCN(C(=O)c2ccc(=O)n(C)n2)C1 (centres undefined) registered its Percent Effect at 4.106

The molecule identified as COCc1nc(C(=O)N2CCN(c3nccc(OC)n3)CC2)cs1 registered its Percent Effect at -10.67

The molecule identified as CCC(NC(=O)c1c(C(=O)O)cnn1C)c1ccc(C)cc1C (centres undefined) registered its Percent Effect at 109.1

The molecule identified as CC(=O)N1CCC(C(=O)NCCN2CCC(C)CC2)CC1 registered its Percent Effect at -2.341

The molecule identified as CCC(NC(=O)CN(C)Cc1ccc(C)o1)c1ccc(C)cc1 (centres undefined) registered its Percent Effect at 3.05

The molecule identified as COc1ccc(-c2noc([C@@H]3C[C@@H](O)CN3C3CCCCC3)n2)cc1 registered its Percent Effect at -13.77

The molecule identified as CCC(NC(=O)c1cc(CC(C)C)nn1C)c1cc(C)ccn1 (centres undefined) registered its Percent Effect at 6.008

The molecule identified as Cc1ccc(C(C(=O)O)N(C)CCCN2CCOCC2)c(C)c1 (centres undefined) registered its Percent Effect at -9.259

The molecule identified as COc1cc(OC)cc(-c2noc(C(N)CCSC)n2)c1 (centres undefined) registered its Percent Effect at 122.3

The molecule identified as CCC(NC(=O)c1nn(C)cc1C(=O)O)c1ccccc1 (centres undefined) registered its Percent Effect at 82.78

The molecule identified as CCc1ccc2c(c1)C(CCNC(=O)Cc1ccc(F)cc1)C(=O)N2 (centres undefined) registered its Percent Effect at 3.277

The molecule identified as CCN(CC1CCCO1)C(=O)Nc1ccc(F)cc1OC (centres undefined) registered its Percent Effect at -0.9971

The molecule identified as COc1ccc(-c2noc(C(=O)NCCN3CCCCC3)n2)cc1OC registered its Percent Effect at -3.645

The molecule identified as Cc1cc(CN(C)C(=O)C2CCS(=O)(=O)C2)no1 (centres undefined) registered its Percent Effect at 3.983

The molecule identified as COCc1nc(C(=O)N2CCCC(n3ccnc3)C2)cs1 (centres undefined) registered its Percent Effect at 102.7

The molecule identified as CCN(CC1CCCO1)C(=O)Nc1ccc(OC)c(C)c1 (centres undefined) registered its Percent Effect at 118.7

The molecule identified as Cc1ccc(-c2noc([C@H](N)CC(C)C)n2)nn1 registered its Percent Effect at 0.7851

The molecule identified as CCC(NC(=O)c1nn(C)cc1C(=O)O)c1ccc(C)cc1C (centres undefined) registered its Percent Effect at 113.8
